- System: 2Sp-muMax20 (muMax20 with two 2,6-bis(methyl)pyridine Cys staples)
- Procedure Text: PBM 8-mer E-score (E-score (rank enrichment, -0.5 to 0.5)); higher = stronger preferential binding
Whole data set: some 33,000 sequences, median “E-score (rank enrichment, -0.5 to 0.5)” near -0.0043, cut for the highest 2% near 0.24. What follows is part of a selection rich in the highest values, with near analogues and random picks from the rest.
Class 1.0: PBM 8-mer E-score at least 0.2. Class 0.0: PBM 8-mer E-score below 0.2.

The examples below pair each entry with its known result.
# check: PBM 8-mer E-score of `GTGTACTA` is greater than or equal to 0.2
0.0

Please answer likewise for `ACGTTATG`
1.0

Would you kindly repeat that for `ACGTTATC` ?
0.0

Same read-out for `AAATCCCG` ?
0.0

Same read-out for `GAGTCAAA` ?
0.0

Others:
API: above_or_equal(metric=PBM 8-mer E-score, cutoff=0.2) for item `TAGTCAAA`
1.0

Then what about the sequence `AACTTCAA` ?
0.0

Next sequence: `CTGTAATC`
0.0

Field entry: `GACTTCAA`
0.0

Input `GGATTCTA`
0.0

Now the sequence `ACTTTATA`
0.0

Another sequence: `ACTTTATC`
0.0

----------
- Test system: 2Sp-muMax20 (muMax20 with two 2,6-bis(methyl)pyridine Cys staples)
- Procedure Text: PBM 8-mer E-score (E-score (rank enrichment, -0.5 to 0.5)); higher = stronger preferential binding
Over roughly 33,000 sequences, “E-score (rank enrichment, -0.5 to 0.5)” has its median near -0.0043; the highest 2% begin near 0.24. Only a selection was taken, and the highest values are over-represented in it overall.
Result Type: PBM 8-mer E-score
Output: the number by itself.

// solved cases for PBM 8-mer E-score follow
Returns the measured PBM 8-mer E-score for the input sequence. Input: `AATTATCA`
0.198

What do we get for `GATACGGC` ?
-0.079

Can you check `CGTATACG` next?
0.279

Next, consider the following sequence.
// lookup PBM 8-mer E-score for `ACACCGAA`
-0.0827

----------
- Test system: 2Sp-muMax20 (muMax20 with two 2,6-bis(methyl)pyridine Cys staples)
- Procedure Text: PBM 8-mer E-score (E-score (rank enrichment, -0.5 to 0.5)); higher = stronger preferential binding
Whole data set: some 33,000 sequences, median “E-score (rank enrichment, -0.5 to 0.5)” near -0.0043, cut for the highest 2% near 0.24. The list comes from a sample in which the highest values are over-represented; it also holds close analogues and randomly drawn sequences.
The label depends only on PBM 8-mer E-score: fulfilled if it is at least 0.04, not fulfilled if it is smaller.

Determine whether measured PBM 8-mer E-score meets or exceeds 0.04 for `ATCCAGTC`
not fulfilled

Also `CTTTAAAC` , if possible.
fulfilled

Try this sequence next: `GCCACCCA`
not fulfilled

Cool, now `AACAAAAA`
not fulfilled

***
Is PBM 8-mer E-score at least 0.04? Consider `CCCCCAAA`
not fulfilled

Let us now turn to `AAAGCTGG`
not fulfilled

Same thing, different sequence: `GCATGTAC`
fulfilled

And then `ATAGCATG` , what is it?
fulfilled

Again, but for `CAGCAACG`
not fulfilled

Same question for `ACCACCCG` please.
not fulfilled

Now consider `CCATGTAC` .
not fulfilled

Same question for `GATCCGAC` please.
not fulfilled

And then `GCGCACTA` , what is it?
not fulfilled

----------
- Tested on: 2Sp-muMax20 (muMax20 with two 2,6-bis(methyl)pyridine Cys staples)
- Procedure Text: PBM 8-mer E-score (E-score (rank enrichment, -0.5 to 0.5)); higher = stronger preferential binding
Whole data set: some 33,000 sequences, median “E-score (rank enrichment, -0.5 to 0.5)” near -0.0043, cut for the highest 2% near 0.24. Many of the other results were omitted from the sample, so the highest values are more common in it than they were.
Would you please tag the item 1 when its PBM 8-mer E-score is 0.1 or above, and 0 when it is below?

Here's what some known entries look like.
Hi team, for `ACGTCAGT` , is the recorded PBM 8-mer E-score at or above 0.1?
0

Query `AACAAATA` next
1

Do the same for `GGAGCAAA` please
0

***
# bool: PBM 8-mer E-score of `TAATTATA` >= 0.1
1

Input `TAGTTATA`
1

Similarly, `GTAACAAC` ?
0

What about this sequence? `CGCCCACA`
1

Param item: `CTATATTA`
1

Next entry: `ACTCTCTA`
1

# repeat for `CTATATCC`
1

Subsequent entry: `AAATTATC`
1

What about this sequence? `CCCACTGA`
0

# repeat for `GTGCCCAC`
0

Do the same for `AAATAGGC` please
0

What do you have for `CCCAACAA` ?
1

Try this sequence next: `CTGGCAAG`
0

Here is the next sequence: `GAGTTATA`
1

----------
- System: 2Sp-muMax20 (muMax20 with two 2,6-bis(methyl)pyridine Cys staples)
- Procedure Text: PBM 8-mer E-score (E-score (rank enrichment, -0.5 to 0.5)); higher = stronger preferential binding
The full ranking holds about 33,000 sequences; the median of “E-score (rank enrichment, -0.5 to 0.5)” is about -0.0043, and the highest 2% start at about 0.24. The sample holds the highest values, similar sequences and a random draw of the others, so the mix is not that of the screen.
The following sequences are listed with their measured PBM 8-mer E-score values.

Some sequences with known PBM 8-mer E-score results, for comparison:
Any idea what PBM 8-mer E-score came out for `ACGCGAAC` on 2Sp-muMax20 (muMax20 with two 2,6-bis(methyl)pyridine Cys staples)?
0.0549

And `AATAATCA` ?
0.0327

Next entry: `CCCTAAAG`
0.134

Okay, and `GATAATAA` ?
0.161

***
Observed PBM 8-mer E-score on 2Sp-muMax20 (muMax20 with two 2,6-bis(methyl)pyridine Cys staples) for `CCCCCCTA` , please.
-0.112

----------
- System: 2Sp-muMax20 (muMax20 with two 2,6-bis(methyl)pyridine Cys staples)
- Procedure Text: PBM 8-mer E-score (E-score (rank enrichment, -0.5 to 0.5)); higher = stronger preferential binding
Over roughly 33,000 sequences, “E-score (rank enrichment, -0.5 to 0.5)” has its median near -0.0043; the highest 2% begin near 0.24. The sample holds the highest values, similar sequences and a random draw of the others, so the mix is not that of the screen.
Classes are defined on PBM 8-mer E-score with ranges class 1 (below -0.01), class 2 (-0.01 to below 0.06), class 3 (0.06 or more)

Examples with answers:
Band of `AAATGATT` ?
class 2

Repeat with `CGTCCCAG`
class 1

Do the same for `AAGCGCTT` please
class 3

# iterate: `AAAGGCCC`
class 1

Turning now to a further record.
Kindly identify the class of `ATTACATA` .
class 3

----------
- System: 2Sp-muMax20 (muMax20 with two 2,6-bis(methyl)pyridine Cys staples)
- Procedure Text: PBM 8-mer E-score (E-score (rank enrichment, -0.5 to 0.5)); higher = stronger preferential binding
Whole data set: some 33,000 sequences, median “E-score (rank enrichment, -0.5 to 0.5)” near -0.0043, cut for the highest 2% near 0.24. The full list was thinned out, with the highest values kept by preference.
Lab note: compare PBM 8-mer E-score against 0.06. Equal or greater, write yes (1). Smaller, write no (0).

Recorded results for 5 sequences are shown here.
Would you say `CCCCCATA` shows PBM 8-mer E-score at minimum 0.06?
no (0)

Request: `ATGGGGTC`
no (0)

Now consider `ATCAATGG` .
yes (1)

// same read-out, input: `CCATTTCG`
no (0)

Now consider `GGCCCATA` .
no (0)

Further cases:
Given `ACCTTCAG` , state whether its PBM 8-mer E-score is at least 0.06.
no (0)

Try this sequence next: `GAAAGTAA`
no (0)

Next record, please: `AACAATTG`
yes (1)

Queued: `TCATAGCA`
yes (1)

Param item: `AATCTGAT`
no (0)

Same again, this time with `GTCAATTA`
yes (1)

Check `AATCACAT` too.
yes (1)

----------
- System: 2Sp-muMax20 (muMax20 with two 2,6-bis(methyl)pyridine Cys staples)
- Procedure Text: PBM 8-mer E-score (E-score (rank enrichment, -0.5 to 0.5)); higher = stronger preferential binding
The full ranking holds about 33,000 sequences; the median of “E-score (rank enrichment, -0.5 to 0.5)” is about -0.0043, and the highest 2% start at about 0.24. The full list was thinned out, with the highest values kept by preference.
Result Type: PBM 8-mer E-score
Please give only the number in your answer, with no unit.

Please review the entries below; each comes with its answer.
Find the recorded PBM 8-mer E-score belonging to `TTATTCAA` and report it.
0.133

Also `AAATAGCC` ?
0.155

Now consider `TAGACCCA` .
0.282

Try `ATCACGTC` next.
0.0413

Further, for `ACACTTTG` ?
0.0709

Note: attention shifts to another entry.
So what's the measured PBM 8-mer E-score for this one? `TAGAATGA`
0.207
